FYI, the data here is from the METLIN SMRT retention time set (Domingo-Almenara et al. 2019).

assay: gradient 5% acetonitrile 3 min, to 50% in 2 min, to 85% in 15 min, held 3 min, 100 µL/min
setup conditions: column: Zorbax Extend-C18 2.1 x 50 mm; eluents: water / acetonitrile, 0.1% formic acid
value type: RP-LC retention time (s)
The response must be a number in s with no trailing unit.

Just so you know, measured RP-LC retention time for O=C(c1ccc2nc[nH]c2c1)N1CCCN(c2cc(-c3ccc(Br)cc3)[nH]n2)CC1 came out at 625

Form field RP-LC retention time, entry Cc1ccc(CNC(=O)C2CCCN2S(=O)(=O)c2cc3c(cc2C)NC(=O)CO3)cc1 (centres undefined) : 777

Short answer for COc1ccc(-c2nc(C)cc3nn(CC(=O)NCc4ccccc4)c(=O)n23)cc1 : RP-LC retention time was 788

Lookup result for CCOc1ccc(NC2=NS(=O)(=O)C(c3ccc(OC)cc3)=C2C)cc1 ; measured RP-LC retention time: 940

Briefly, RP-LC retention time measured for CC(Cc1ccco1)NC(=O)C1CCN(Cc2cc3ccccc3n2Cc2cccc(Cl)c2)CC1 (centres undefined) : 821

Summary for this compound, COCCNC(=O)c1ccc(-c2nc(CSc3ccccc3)c(C)o2)cc1 : RP-LC retention time is 882

The reported value for CCOC(=O)c1nc(NCc2ccccc2OC)c2ccccc2n1 in terms of RP-LC retention time is 774

RP-LC retention time for CN1c2ccccc2C(=O)NC12CCN(C(=O)Nc1cccc(F)c1)CC2 is 726

The compound listed as O=C(NCc1csc(C2CCCN(C(=O)c3cc(F)ccc3Cl)C2)n1)C1CC1 (centres undefined) shows RP-LC retention time equal to 750
